Below, each entry is listed alongside its reported pIC50.
Target: CYP-2D6 (Homo sapiens (Human), UniProt P10635)
Sequence (P10635 whole entry): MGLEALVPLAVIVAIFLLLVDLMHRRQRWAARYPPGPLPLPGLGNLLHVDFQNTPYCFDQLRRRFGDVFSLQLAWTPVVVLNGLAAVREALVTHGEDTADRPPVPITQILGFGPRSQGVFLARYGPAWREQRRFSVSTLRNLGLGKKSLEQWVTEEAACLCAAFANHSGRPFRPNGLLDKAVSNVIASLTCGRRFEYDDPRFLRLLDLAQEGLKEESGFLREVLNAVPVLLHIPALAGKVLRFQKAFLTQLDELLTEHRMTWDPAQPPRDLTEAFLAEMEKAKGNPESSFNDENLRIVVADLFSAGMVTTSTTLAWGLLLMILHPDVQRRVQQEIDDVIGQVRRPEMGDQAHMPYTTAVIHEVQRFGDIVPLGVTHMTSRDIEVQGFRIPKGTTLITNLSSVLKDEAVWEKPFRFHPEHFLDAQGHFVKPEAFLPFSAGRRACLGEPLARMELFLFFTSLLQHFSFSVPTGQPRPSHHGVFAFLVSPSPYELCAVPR
Experiment: CYP panel profile: P450 inhibition, CYP-2D6
Format: in vitro ADME
Conditions: human liver microsomes
pIC50: −log10 of the molar value.
MEASURED_PROPERTY: pIC50

COMPOUND	MEASURED_PROPERTY	RESULT_VALUE
O=C(c1ccccc1)n1c(-c2cccc3ccccc23)nc2cc(Cl)ccc21 [Compound 494]	pIC50	< 4.30
O=C(c1ccc(F)c(F)c1)n1c(-c2ccc(-c3ccccc3)cc2)nc2cc(Cl)ccc21 [Compound 643]	pIC50	< 4.30
O=C(c1ccc(F)c(F)c1)n1c(-c2cccc3ccccc23)cc2cc(Cl)ccc21 [Compound 973]	pIC50	< 4.30

----------
Assay: Liver microsomal stability, human
Details: human, liver microsomes, pH 7.4

CHEMICAL_STRUCTURE	microsomal CLint at 1 μM
O=S(=O)(c1ccc(C(F)(F)F)cc1)n1c(-c2cccc3ccccc23)nc2ccc(Cl)cc21	27.4 µL/min/mg
O=S(=O)(c1ccc2ccccc2c1)n1c(-c2cccc3ccccc23)nc2cc(Cl)ccc21	40.9 µL/min/mg
O=C(c1ccc(F)c(F)c1)n1c(-c2ccc(-c3ccccc3)cc2)nc2ccc(Cl)cc21	18 µL/min/mg
O=C(c1ccc(SC(F)(F)F)cc1)c1c[nH]c2ccc(Cl)cc12	14 µL/min/mg

----------
Below, each entry is listed alongside its reported Fold @ 100 nM.
Target: aryl hydrocarbon receptor (AhR) (Mus musculus (Mouse))
Sequence (P30561 10-805): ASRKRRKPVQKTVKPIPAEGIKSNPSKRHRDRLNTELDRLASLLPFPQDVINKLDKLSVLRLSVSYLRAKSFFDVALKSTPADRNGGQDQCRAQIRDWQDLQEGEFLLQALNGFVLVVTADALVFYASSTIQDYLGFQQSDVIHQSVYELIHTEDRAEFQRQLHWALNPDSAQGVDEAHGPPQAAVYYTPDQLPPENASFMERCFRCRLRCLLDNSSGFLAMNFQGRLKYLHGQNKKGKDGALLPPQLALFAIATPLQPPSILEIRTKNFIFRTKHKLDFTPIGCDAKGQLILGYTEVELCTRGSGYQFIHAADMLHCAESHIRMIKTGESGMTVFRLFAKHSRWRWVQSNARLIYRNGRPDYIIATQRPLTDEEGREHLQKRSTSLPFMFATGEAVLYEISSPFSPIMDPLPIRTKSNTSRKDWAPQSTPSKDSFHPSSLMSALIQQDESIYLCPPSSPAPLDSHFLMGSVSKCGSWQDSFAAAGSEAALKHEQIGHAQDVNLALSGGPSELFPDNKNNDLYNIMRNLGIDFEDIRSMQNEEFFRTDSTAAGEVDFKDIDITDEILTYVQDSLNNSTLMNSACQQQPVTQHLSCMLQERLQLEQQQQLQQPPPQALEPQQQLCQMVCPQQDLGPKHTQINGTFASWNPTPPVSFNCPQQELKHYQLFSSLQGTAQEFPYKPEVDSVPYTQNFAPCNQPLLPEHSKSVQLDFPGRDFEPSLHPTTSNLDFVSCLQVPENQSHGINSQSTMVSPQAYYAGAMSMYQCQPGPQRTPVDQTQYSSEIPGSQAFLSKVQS
Sequence (P53762 whole entry partner): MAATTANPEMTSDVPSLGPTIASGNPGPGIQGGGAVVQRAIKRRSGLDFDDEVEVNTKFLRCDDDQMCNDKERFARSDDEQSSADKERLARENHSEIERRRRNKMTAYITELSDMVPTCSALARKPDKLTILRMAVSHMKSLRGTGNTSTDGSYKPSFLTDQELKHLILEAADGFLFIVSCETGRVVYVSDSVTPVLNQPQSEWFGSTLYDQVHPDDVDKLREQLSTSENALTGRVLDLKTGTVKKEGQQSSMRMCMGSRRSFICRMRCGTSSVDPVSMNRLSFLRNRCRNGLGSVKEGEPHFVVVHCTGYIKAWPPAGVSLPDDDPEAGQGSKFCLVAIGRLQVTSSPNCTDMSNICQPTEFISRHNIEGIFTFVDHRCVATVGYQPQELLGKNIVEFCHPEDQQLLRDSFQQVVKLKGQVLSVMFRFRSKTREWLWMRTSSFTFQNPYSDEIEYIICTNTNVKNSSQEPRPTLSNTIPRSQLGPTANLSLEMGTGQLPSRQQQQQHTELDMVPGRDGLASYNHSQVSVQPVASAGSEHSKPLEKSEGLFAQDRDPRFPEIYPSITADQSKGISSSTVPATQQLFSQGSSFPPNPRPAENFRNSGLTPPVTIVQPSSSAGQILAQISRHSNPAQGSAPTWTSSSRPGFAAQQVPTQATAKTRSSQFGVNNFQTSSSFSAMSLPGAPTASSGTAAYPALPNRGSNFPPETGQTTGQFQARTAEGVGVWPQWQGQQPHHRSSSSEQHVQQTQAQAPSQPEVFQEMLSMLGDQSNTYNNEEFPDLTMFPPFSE
Assay: AhR ligand screening: AhRE-luciferase reporter in transfected Hepa1 cells
Type: cell-based
Conditions: fold change of luciferase expression at 100 nM test compound relative to vehicle (0.1% DMSO)

CHEMICAL_STRUCTURE	EXPERIMENTAL_SYSTEM	Fold @ 100 nM / fold
N#Cc1ccc(C(=O)c2c[nH]c3ccc(Cl)cc23)cc1	aryl hydrocarbon receptor (AhR) (Mus musculus (Mouse))	7
O=C(c1ccc(Cl)cc1Cl)c1c[nH]c2ccc(Cl)cc12	aryl hydrocarbon receptor (AhR) (Mus musculus (Mouse))	2
O=C(c1ccccc1)n1c(-c2cccc3ccccc23)nc2cc(F)ccc21	aryl hydrocarbon receptor (AhR) (Mus musculus (Mouse))	5
N#Cc1ccc(C(=O)n2c(-c3cccc4ccccc34)nc3cc(Cl)ccc32)cc1	aryl hydrocarbon receptor (AhR) (Mus musculus (Mouse))	28
COC(=O)c1ccc2nc(-c3cccc4ccccc34)n(Cc3ccc(Cl)cc3)c2c1	aryl hydrocarbon receptor (AhR) (Mus musculus (Mouse))	1
O=C(c1ccc2nc(-c3cccc4ccccc34)n(S(=O)(=O)c3ccc(C(F)(F)F)cc3)c2c1)N1CCOCC1	aryl hydrocarbon receptor (AhR) (Mus musculus (Mouse))	1
O=C(C1CC1)n1c(-c2cccc3ccccc23)nc2cc(Cl)ccc21	aryl hydrocarbon receptor (AhR) (Mus musculus (Mouse))	25

----------
Below, each entry is listed alongside its reported Fold relative to benchmark @ 100 nM.
Target: aryl hydrocarbon receptor (AhR) (Mus musculus (Mouse))
Experiment: AhR ligand screening: AhRE-luciferase reporter in transfected Hepa1 cells
Format: cell-based
Conditions: luciferase expression at 100 nM test compound relative to 100 nM benchmark compound 11-cl-BBQ
MEASURED_PROPERTY: Fold relative to benchmark @ 100 nM (fold)

MOLECULE	MEASURED_PROPERTY	RESULT_VALUE
O=C(c1ccc(OC(F)(F)F)cc1)c1c[nH]c2ccc(Cl)cc12	Fold relative to benchmark @ 100 nM	0.04
COc1ccc(C(=O)n2c(-c3cccc4ccccc34)nc3cc(Cl)ccc32)cc1	Fold relative to benchmark @ 100 nM	0.95
CC1(O)c2cccc3cccc(c23)-c2nc3ccccc3n21 (stereo not shown)	Fold relative to benchmark @ 100 nM	0.4
O=C(c1ccc(F)c(F)c1)n1c(-c2cccc(C(F)(F)F)c2Cl)nc2cc(Cl)ccc21	Fold relative to benchmark @ 100 nM	0.06
O=C(c1ccncc1)n1c(-c2ccccc2)nc2cc(Cl)ccc21	Fold relative to benchmark @ 100 nM	0.03
COc1ccc(C(=O)c2c[nH]c3ccc(Cl)cc23)cc1	Fold relative to benchmark @ 100 nM	0.02
COc1ccc(C(=O)n2c(-c3cccc(C(F)(F)F)c3)nc3ccc(Cl)cc32)cc1	Fold relative to benchmark @ 100 nM	0.08
O=C(c1ccccc1)n1c(-c2cccc3c2CCCC3)nc2ccc(Cl)cc21	Fold relative to benchmark @ 100 nM	0.04
O=C(c1ccc(F)c(F)c1)n1c(-c2ccc3ccccc3c2)nc2cc(Cl)ccc21	Fold relative to benchmark @ 100 nM	0.08
O=C1c2ccccc2-c2nc3ccc(Cl)cc3n21	Fold relative to benchmark @ 100 nM	0.03
O=C(C1CCCCC1)n1c(-c2cc3ccccc3o2)nc2cc(Cl)ccc21	Fold relative to benchmark @ 100 nM	0.41
N#Cc1ccc(C(=O)c2c[nH]c3ccc(Cl)cc23)cc1	Fold relative to benchmark @ 100 nM	0.13
CC(C)(C)c1cccc(-c2nc3cc(Cl)ccc3n2C(=O)c2ccc(F)c(F)c2)c1	Fold relative to benchmark @ 100 nM	0.04
O=C(c1ccc(F)c(F)c1)n1c(-c2ccc(F)c(Cl)c2)nc2ccc(Cl)cc21	Fold relative to benchmark @ 100 nM	0.07
O=C(c1cccc2ccccc12)c1c[nH]c2cc(Cl)ccc12	Fold relative to benchmark @ 100 nM	0.03
O=C(c1ccc(F)c(F)c1)n1c(-c2cc3ccccc3o2)nc2cc(Cl)ccc21	Fold relative to benchmark @ 100 nM	0.41
COC(=O)c1ccc2nc(-c3cccc4ccccc34)n(C(=O)c3ccc(F)c(F)c3)c2c1	Fold relative to benchmark @ 100 nM	0.04
COc1ccc(-c2nc3ccc(Cl)cc3n2C(=O)c2ccccc2)cc1	Fold relative to benchmark @ 100 nM	0.05
COC(=O)c1ccc2c(c1)nc(-c1cccc3ccccc13)n2S(=O)(=O)c1ccc(Cl)cc1	Fold relative to benchmark @ 100 nM	0.07
O=C(c1ccc(F)c(F)c1)n1c(-c2csc3ccccc23)nc2cc(Cl)ccc21	Fold relative to benchmark @ 100 nM	0.07
O=C(c1ccc(F)c(F)c1)n1c(-c2cc3ccccc3o2)nc2ccc(Cl)cc21	Fold relative to benchmark @ 100 nM	0.34
COC(=O)c1ccc2c(c1)nc(-c1cccc3ccccc13)n2C(=O)c1ccc(Cl)cc1Cl	Fold relative to benchmark @ 100 nM	0.07
O=C(c1cnc2ccccc2c1)n1c(-c2cccc3ccccc23)nc2ccc(Cl)cc21	Fold relative to benchmark @ 100 nM	1.31
O=C(c1ccccc1)n1c(-c2ccc3ccccc3c2)nc2ccc(F)cc21	Fold relative to benchmark @ 100 nM	0.07
COc1ccc(C(=O)n2c(-c3cc4ccccc4s3)nc3cc(F)ccc32)cc1	Fold relative to benchmark @ 100 nM	0.22
COc1ccc(C(=O)n2c(-c3cccc4ccccc34)nc3ccc(Cl)cc32)cc1OC	Fold relative to benchmark @ 100 nM	1
N#Cc1ccc(S(=O)(=O)n2c(-c3cccc4ccccc34)nc3cc(C(=O)N4CCCCC4)ccc32)cc1	Fold relative to benchmark @ 100 nM	0.03
O=C(c1ccc(F)c(F)c1)n1c(-c2cccc3ccccc23)nc2cc(Cl)ccc21 [Compound 529]	Fold relative to benchmark @ 100 nM	1.03
Cc1ccc(S(=O)(=O)n2c(-c3cccc4ccccc34)nc3ccc(Cl)cc32)cc1	Fold relative to benchmark @ 100 nM	0.48
Fc1cccc(F)c1Cn1c(-c2cccc3ccccc23)nc2cc(Cl)ccc21	Fold relative to benchmark @ 100 nM	0.02
Cn1cc(C(=O)c2cccc3ccccc23)c2cc(Cl)ccc21	Fold relative to benchmark @ 100 nM	0.03

----------
Biological target: aryl hydrocarbon receptor (AhR) (Mus musculus (Mouse))
Assay: AhR ligand screening: AhRE-luciferase reporter in transfected Hepa1 cells
Assay type: cell-based
Details: fold change of luciferase expression at 100 nM test compound relative to vehicle (0.1% DMSO)

CHEMICAL_STRUCTURE	READOUT_UNITS	Fold @ 100 nM
O=S(=O)(C1CC1)n1c(-c2cccc3ccccc23)nc2ccc(Cl)cc21	fold	2
Fc1ccc(-n2c(-c3cccc4ccccc34)nc3cc(Cl)ccc32)nc1	fold	1
COc1ccc(C(=O)n2c(-c3cccc4ccccc34)nc3ccc(Cl)cc32)cc1OC	fold	26
COC(=O)c1ccc2[nH]c(-c3cccc4ccccc34)nc2c1	fold	2
COc1ccc(C(=O)n2c(-c3cc4ccccc4s3)nc3ccc(Cl)cc32)cc1	fold	2
O=C(c1cc2cc(Cl)ccc2o1)c1cccc2ccccc12	fold	1
COC(=O)c1ccc2c(c1)nc(-c1cccc3ccccc13)n2Cc1ccc(F)c(F)c1	fold	1
CCc1ccc(S(=O)(=O)n2c(-c3cccc4ccccc34)nc3ccc(Cl)cc32)cc1	fold	15
Clc1ccc2nc(-c3cccc4ccccc34)n(Cc3ccnc4ccccc34)c2c1	fold	2
O=C(c1ccc(F)c(F)c1)n1c(-c2cccc3ccccc23)nc2cc(Cl)c(Cl)cc21	fold	24
O=C(C1CCCCC1)n1c(-c2cccc3ccccc23)nc2ccc(Cl)cc21	fold	10
O=C(c1cnc2ccccc2c1)n1c(-c2cccc3ccccc23)nc2ccc(Cl)cc21	fold	38
COC(=O)c1ccc2c(c1)nc(-c1cccc3ccccc13)n2C(=O)c1ccc(OC(F)(F)F)cc1	fold	2
COc1ccc(C(=O)n2c(-c3cccc(C(F)(F)F)c3)nc3ccc(Cl)cc32)cc1	fold	2
N#Cc1ccc(S(=O)(=O)n2c(-c3cccc4ccccc34)nc3cc(C(=O)N4CCCCC4)ccc32)cc1	fold	1
O=C(c1ccc(F)c(F)c1)n1c(-c2cccc3ccccc23)nc2ccc(Br)cc21	fold	22
